Just for reference, PubChem BioAssay AID1963862 is where these values come from.

# Test system: KRAS patient-derived spheroids with HUVEC/MSC, viability;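 further: spheroids exposed to agents for seven days before readout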
# measurementProtocol: Anticancer human tumor 941728-121-R-J1-PDC patient-derived lung adenocarcinoma cell line growth inhibition [KRAS2]
# experimentalConditions: second compound 0.1 µM; first compound 10 µM; active compounds read low
assayMetric: viability, T/C (%)

INSERT INTO assay_data (compound, resultnumber) VALUES
  ('CC(C)NCC(C(=O)N1CCN(c2ncnc3c2C(C)CC3O)CC1)c1ccc(Cl)cc1 (stereo not drawn) + CNCc1ccccc1-c1csc(C(C)Nc2nc(C)nc3cc(OC)c(OC)cc23)c1', 16.6),
  ('Cn1nccc1Nc1nccc(-c2cc3c(s2)C(C)(C)N(CCN2CCOCC2)C3=O)n1 + COc1cc2nc(C)nc(NC(C)c3cc(N)cc(C(F)(F)F)c3)c2cc1OC1CCOC1', 37.8),
  ('CC(C)NCC(C(=O)N1CCN(c2ncnc3c2C(C)CC3O)CC1)c1ccc(Cl)cc1 (stereo not drawn) + COc1cc2nc(C)nc(NC(C)c3cc(N)cc(C(F)(F)F)c3)c2cc1OC1CCOC1', 8.21);
